# Test system: classical pathway of complement
# METHOD_DESCRIPTION: ELISA inhibition of classical pathway complement activation
# Assay type: biochemical
# EXPERIMENTAL_CONTEXT: read-out: IC50, peptide concentration to reach 50% inhibition of classical pathway complement activation; Table 1
READOUT: IC50 (µM)
Quick note: give the figure in µM, leave out the unit.

Before answering, review these 3 worked examples.
Incoming: Indicate its recorded IC50; the compound in question is CC[C@H](C)[C@H](NC)C(=O)N[C@H]1CSSC[C@@H](C(=O)N(C)[C@H](C(N)=O)[C@@H](C)CC)NC(=O)[C@H](CCCNC(=N)N)NC(=O)[C@H](Cc2c[nH]cn2)NC(=O)[C@H](C)NC(=O)CN(C)C(=O)[C@H](Cc2c[nH]c3ccccc23)NC(=O)[C@H](CC(=O)O)NC(=O)[C@H](CCC(N)=O)NC(=O)[C@H](Cc2cn(C)c3ccccc23)NC(=O)[C@H](C(C)C)NC1=O [peptide 1]
Outgoing: 0.18

Incoming: Indicate its recorded IC50; the compound in question is CC[C@H](C)[C@H](NC(=O)CNC)C(=O)N[C@H]1CSSC[C@@H](C(=O)N(C)[C@H](C(N)=O)[C@@H](C)CC)NC(=O)[C@H](CCCNC(=N)N)NC(=O)[C@H](Cc2c[nH]cn2)NC(=O)[C@H](C)NC(=O)CN(C)C(=O)[C@H](Cc2c[nH]c3ccccc23)NC(=O)[C@H](CC(=O)O)NC(=O)[C@H](CCC(N)=O)NC(=O)[C@H](Cc2cn(C)c3ccccc23)NC(=O)[C@H](C(C)C)NC1=O [peptide 3]
Outgoing: 0.082

Incoming: Indicate its recorded IC50; the compound in question is CC[C@H](C)[C@H](NC(C)=O)C(=O)N[C@H]1CSSC[C@@H](C(=O)N[C@H](C(N)=O)[C@@H](C)O)NC(=O)[C@H](CCCNC(=N)N)NC(=O)[C@H](Cc2c[nH]cn2)NC(=O)[C@H](C)NC(=O)CNC(=O)[C@H](Cc2c[nH]c3ccccc23)NC(=O)[C@H](CC(=O)O)NC(=O)[C@H](CCC(N)=O)NC(=O)[C@H](Cc2cn(C)c3ccccc23)NC(=O)[C@H](C(C)C)NC1=O [4(1MeW), reference compound]
Outgoing: 0.132

Now consider the entry below.
Incoming: Indicate its recorded IC50; the compound in question is CC[C@H](C)[C@H](NC(=O)[C@@H](N)Cc1ccc(O)cc1)C(=O)N[C@H]1CSSC[C@@H](C(=O)N(C)[C@H](C(N)=O)[C@@H](C)CC)NC(=O)[C@H](CCCNC(=N)N)NC(=O)[C@H](Cc2c[nH]cn2)NC(=O)[C@H](C)NC(=O)CN(C)C(=O)[C@H](Cc2c[nH]c3ccccc23)NC(=O)[C@H](CC(=O)O)NC(=O)[C@H](CCC(N)=O)NC(=O)[C@H](Cc2cn(C)c3ccccc23)NC(=O)[C@H](C(C)C)NC1=O [peptide 4]
Outgoing: 0.072
